Molecular target: OTU domain-containing protein 3 (Homo sapiens) (UniProt Q5T2D3)
Sequence (Q5T2D3 whole entry, looked up, the tested form may be a part): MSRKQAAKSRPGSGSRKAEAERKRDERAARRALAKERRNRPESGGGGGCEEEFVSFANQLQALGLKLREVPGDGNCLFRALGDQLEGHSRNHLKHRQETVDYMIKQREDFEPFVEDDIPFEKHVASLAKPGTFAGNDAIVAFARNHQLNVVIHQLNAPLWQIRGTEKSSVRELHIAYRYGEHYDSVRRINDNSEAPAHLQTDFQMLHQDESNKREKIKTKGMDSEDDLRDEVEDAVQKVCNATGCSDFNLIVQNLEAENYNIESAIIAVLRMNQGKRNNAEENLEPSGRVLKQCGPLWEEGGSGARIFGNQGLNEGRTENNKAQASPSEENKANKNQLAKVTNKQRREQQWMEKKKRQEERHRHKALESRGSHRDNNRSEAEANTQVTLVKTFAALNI
Assay: Validation of screening hits, potency titration, in vitro enzymatic, OTU domain-containing protein 3 DUB inhibitors (AID 1645868)
Details: purified OTUD3, ubiquitin-rhodamine cleavage fluorescence, 2 h
The source made the active and inactive calls.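 How the source made its calls: active means maximal percent inhibition of the deubiquitinase OTUD3 of at least 30% across the tested doses; inactive means the rest.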
Use one of these outcomes when replying: label 1 for active, label 0 for inactive

Please review the entries below; each comes with its answer.
Task item: Hey, what did the test say about COc1cc(Cn2cnc3c([nH]c4ccc(Br)cc43)c2=O)cc(OC)c1 ?
Reply: label 1

Task item: Lookup COc1ccc(CNC(=O)c2[nH]nc3c2CCc2ccccc2-3)cc1
Reply: label 0

Task item: Cool, now Cc1c(C)n(-c2ccc(Br)cn2)c2ncnc(NCCCO)c12
Reply: label 0

Task item: Please do the same for CN1C(=O)COc2ccc(NC(=O)c3cc(-c4ccccc4)on3)cc21 as well.
Reply: label 0

Task item: Could you do the same for CCOc1ccc2c(c1)c(=O)c(C(=O)c1ccc(C)cc1)cn2CC(=O)Nc1ccc(OC)c(OC)c1 , please?
Reply: label 1

***
Task item: Would you mind telling me which call this test gave O=C(COC(=O)Cn1cnc2ccccc21)Nc1ccc2c(c1)OCCO2 ?
Reply: label 0

Task item: Note, next up: Cc1cnc(CN2CCCC(c3ccc4cn[nH]c4n3)C2)cn1 (stereo not given)
Reply: label 0

Task item: Then Cc1cc(NC(=O)c2[nH]nc3c2CCc2ccccc2-3)no1 ?
Reply: label 1

Task item: Also CC1CCN(c2nnc(-c3nc(C4CC4)no3)c3ccccc23)CC1 , if possible.
Reply: label 0

Task item: What do we get for Cc1nc(-c2noc3ccc(C(=O)Nc4cccnc4)cc23)cs1 ?
Reply: label 1

Task item: Now the compound Cc1ccc2nnc(-c3ccccc3)c(C(=O)N3CCN(c4ccccn4)CC3)c2c1
Reply: label 0

Task item: Note, next up: CC(=O)c1cccc(NC(=O)c2ccc(N3CCCCC3)nn2)c1
Reply: label 0

Task item: Next compound: O=C1CC(O)C(C2=CC(=O)c3c(O)cccc3C2=O)O1 (stereo not given)
Reply: label 1

Task item: Another compound to look at: O=C1CC(c2cc3c(cc2Br)OCO3)c2cc3c(cc2N1)OCCO3 (stereo not given)
Reply: label 1

Task item: One more compound: CC1OC1C(=O)[C@]1(O)[C@H](C)[C@@H](O)[C@@]23O[C@@]2([C@H](O)c2c(O)cccc2C3=O)[C@H]1O (stereo not given in full)
Reply: label 0

Task item: Same thing, different compound: Cc1cc(C)nc(-n2nc(C)c3c2NC(=O)CSC3c2ccc(F)cc2F)n1 (stereo not given)
Reply: label 1

Task item: Another: COc1ccc(-c2ocnc2C(=O)Nc2cccc(Cl)c2C)cc1OC
Reply: label 0

Task item: COc1ccccc1NC(=O)Cn1cc(C(=O)c2ccc(C)cc2)c(=O)c2ccccc21 , same question.
Reply: label 1

Task item: One more compound: CCC(=O)Nc1ccccc1-c1nc2ccccc2n(CC(=O)Nc2cc(OC)ccc2OC)c1=O
Reply: label 1

Reference source for all entries: PubChem BioAssay AID1645868
